Hello, the source for this data is PubChem BioAssay (NCI), in case you need it.

Test system: DMS 114 small cell lung
assay.notes: NCI tumour cell line growth inhibition, 48 h
quantity.measured: TGI (µM)
Express it in µM; write the number only.

Q: Dear colleague, I am looking for the recorded TGI of the following compound: `CC[C@@]1(OC(=O)CN(C)C)C(=O)OCc2c1cc1n(c2=O)Cc2cc3ccccc3nc2-1`
Result: 1.53

Q: So what does the record say about TGI for CC(C)=C1CCC(CN2CCCC2)C1=O (stereo not given) ?
Result: 37

====

Test system: MALME-3M melanoma
assay.notes: NCI tumour cell line growth inhibition, 48 h
Please go through the items and note down their TGI.
Kindly answer with a numeric value in µM, unit omitted.

Q: Query: TGI; subject: COC1C(CO)OC(n2c3ccccc3c3c4c(c5c6ccccc6[nH]c5c32)C(=O)NC4=O)C(O)C1OC(=O)C(N)CCCCN (stereo not given)
Result: 0.946

Q: What value of TGI has been recorded for this entry: `COc1cc(/C=C\c2cccnc2Nc2ccccc2)cc(OC)c1OC`
Result: 87.4
